biological target: UniProtKB O75173; experiment: Agg-1 FRET assay; format: biochemical; settings: @ 66700 nM; read-out: Agg1 %
Sequence (O75173 213-837): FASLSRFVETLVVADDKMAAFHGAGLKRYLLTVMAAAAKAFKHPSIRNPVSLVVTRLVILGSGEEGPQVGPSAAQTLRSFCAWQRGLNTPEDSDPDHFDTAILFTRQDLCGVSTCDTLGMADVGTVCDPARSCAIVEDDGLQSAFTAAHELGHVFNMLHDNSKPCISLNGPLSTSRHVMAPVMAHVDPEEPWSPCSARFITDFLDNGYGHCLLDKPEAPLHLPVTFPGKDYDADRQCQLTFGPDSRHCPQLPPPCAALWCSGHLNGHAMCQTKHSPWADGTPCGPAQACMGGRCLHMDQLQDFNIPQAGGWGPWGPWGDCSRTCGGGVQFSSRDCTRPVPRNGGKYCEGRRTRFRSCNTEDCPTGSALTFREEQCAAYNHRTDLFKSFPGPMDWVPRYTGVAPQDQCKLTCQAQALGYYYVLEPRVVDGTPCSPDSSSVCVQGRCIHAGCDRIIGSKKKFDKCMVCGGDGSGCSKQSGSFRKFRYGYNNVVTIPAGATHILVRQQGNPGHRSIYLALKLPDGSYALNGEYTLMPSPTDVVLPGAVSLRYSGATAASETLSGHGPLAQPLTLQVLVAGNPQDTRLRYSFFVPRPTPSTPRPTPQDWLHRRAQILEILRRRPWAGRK
Readout type: inhibition at 66.7 µM (%)
Respond numerically; units are % and should not be typed.

[
  {
    "Compound": "O=C(COc1ccccc1)NC(c1cc2ccccc2o1)c1cc(Cl)c2cccnc2c1O (stereo not shown) [Example 168]",
    "Measurement": 49
  },
  {
    "Compound": "CC1(C)CCc2cc(C(NC(=O)COc3ccccc3)c3cc(Cl)c4cccnc4c3O)ccc2O1 (stereo not shown) [Example 171]",
    "Measurement": 55
  },
  {
    "Compound": "CCCCN(CCCC)c1ccc(C(NC(=O)COc2ccccc2)c2cc(Cl)c3cccnc3c2O)cc1 (stereo not shown) [Example 136]",
    "Measurement": 40
  }
]

Query string: // fetch inhibition at 66.7 µM given entry CC(C)(C)c1csc(-c2ccc(C(NC(=O)COc3ccccc3)c3cc(Cl)c4cccnc4c3O)cc2)n1 (stereo not shown) [Example 146]
Result string: 42

---

Biological target: recombinant human Aggrecanase-2 Agg2-Phe628 (Homo sapiens)
Sequence (Q9UNA0 262-628 limits assumed): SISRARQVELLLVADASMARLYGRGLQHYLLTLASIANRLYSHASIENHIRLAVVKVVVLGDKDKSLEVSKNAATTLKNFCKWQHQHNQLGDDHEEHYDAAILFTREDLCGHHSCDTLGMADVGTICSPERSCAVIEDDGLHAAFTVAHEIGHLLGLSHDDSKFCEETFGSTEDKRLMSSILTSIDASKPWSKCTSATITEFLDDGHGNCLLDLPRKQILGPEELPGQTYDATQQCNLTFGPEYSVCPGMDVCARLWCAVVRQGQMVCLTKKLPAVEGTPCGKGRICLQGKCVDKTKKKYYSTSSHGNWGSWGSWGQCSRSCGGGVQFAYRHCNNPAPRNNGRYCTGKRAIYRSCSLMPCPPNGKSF
Test: Aggrecanase 2 in vitro enzyme assay (Agg-2 FRET, quenched fluorescent peptide substrate)
Format: biochemical
Set-up: purified recombinant human Aggrecanase-2 Agg2-Phe628 (MW=41,737); This is a truncated form of full-length human aggrecanase-2; made in house; host or cells: CHO cells
Details: read-out: Agg2 IC50
Field 'label' (enum: fulfilled / not fulfilled). Set to fulfilled when IC50 is strictly under 2000 nM; else not fulfilled.

Study these solved cases before continuing.
[
  {
    "Compound": "O=C(COc1ccccc1)NC(c1cn2c(n1)COCC2)c1cc(Cl)c2cccnc2c1O (stereo not shown) [Example 178]",
    "Tested on": "recombinant human Aggrecanase-2 Agg2-Phe628 (Homo sapiens)",
    "Label class": "not fulfilled"
  },
  {
    "Compound": "O=C(COc1ccccc1)NC(c1cccc(Oc2ccccc2)c1)c1cc(Cl)c2cccnc2c1O (stereo not shown) [Example 131]",
    "Tested on": "recombinant human Aggrecanase-2 Agg2-Phe628 (Homo sapiens)",
    "Label class": "not fulfilled"
  },
  {
    "Compound": "O=C(CNCc1cccc2ccccc12)NC(c1ccccc1Cl)c1cc(Cl)c2cccnc2c1O (stereo not shown) [Example 231]",
    "Tested on": "recombinant human Aggrecanase-2 Agg2-Phe628 (Homo sapiens)",
    "Label class": "fulfilled"
  },
  {
    "Compound": "O=C(Cc1ccccc1)NC(c1ccccc1)c1cc(Cl)c2cccnc2c1O (stereo not shown)",
    "Tested on": "recombinant human Aggrecanase-2 Agg2-Phe628 (Homo sapiens)",
    "Label class": "not fulfilled"
  },
  {
    "Compound": "O=C(COc1ccccc1)NC(c1ccccc1)c1cc(-n2cccc2)c2cccnc2c1O (stereo not shown)",
    "Tested on": "recombinant human Aggrecanase-2 Agg2-Phe628 (Homo sapiens)",
    "Label class": "fulfilled"
  }
]

Query string: Does the reported IC50 of the following compound sit strictly below 2000 nM? Cc1ccc(C(NC(=O)COc2ccccc2)c2cc(Cl)c3cccnc3c2O)o1 (stereo not shown)
Result string: not fulfilled

Query string: Does the reported IC50 of the following compound sit strictly below 2000 nM? O=C(NC(c1ccc2c(c1)OCO2)c1cc(Cl)c2cccnc2c1O)OCc1ccccc1 (stereo not shown)
Result string: fulfilled
